# viability, T/C per entry
tested on: OVCAR-5 complex spheroid (HUVEC/MSC), viability % T/C; experiment: Anticancer human tumor OVCAR-5 cell line growth inhibition [Asc]; settings: second compound 0.01 µM; first compound 3.16 µM; active compounds read low;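 note: spheroids exposed to agents for 7 days before readout; 100% = DMSO vehicle-treated wells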

- compound: "C=C(F)C(=O)N1CCN(c2nc(OCC3CCCN3C)nc3c2CCN(c2cccc4cccc(Cl)c24)C3)CC1CC#N (centres undefined) + CNC(C)C(=O)NC1CN(S(=O)(=O)c2cccc(S(=O)(=O)N3CCC4CCC(C(=O)NC(c5ccccc5)c5ccccc5)N4C(=O)C(NC(=O)C(C)NC)C3)c2)CCC2CCC(C(=O)NC(c3ccccc3)c3ccccc3)N2C1=O"
  target entity: "OVCAR-5 complex spheroid (HUVEC/MSC), viability % T/C"
  viability, T/C / %: 11.3
- compound: "C#Cc1c(F)ccc2cc(O)cc(-c3ncc4c(N5CC6CCC(C5)N6)nc(OCC56CCCN5CC(F)C6)nc4c3F)c12 (centres undefined) + CNC(C)C(=O)NC1CN(S(=O)(=O)c2cccc(S(=O)(=O)N3CCC4CCC(C(=O)NC(c5ccccc5)c5ccccc5)N4C(=O)C(NC(=O)C(C)NC)C3)c2)CCC2CCC(C(=O)NC(c3ccccc3)c3ccccc3)N2C1=O"
  target entity: "OVCAR-5 complex spheroid (HUVEC/MSC), viability % T/C"
  viability, T/C / %: 70.8
- compound: "C=CC(=O)N1CCN(c2nc(=O)n(-c3c(C)ccnc3C(C)C)c3nc(-c4c(O)cccc4F)c(F)cc23)C(C)C1 (centres undefined) + CNC(C)C(=O)NC1CN(S(=O)(=O)c2cccc(S(=O)(=O)N3CCC4CCC(C(=O)NC(c5ccccc5)c5ccccc5)N4C(=O)C(NC(=O)C(C)NC)C3)c2)CCC2CCC(C(=O)NC(c3ccccc3)c3ccccc3)N2C1=O"
  target entity: "OVCAR-5 complex spheroid (HUVEC/MSC), viability % T/C"
  viability, T/C / %: 115
- compound: "O=C(c1cc(Cc2n[nH]c(=O)c3ccccc23)ccc1F)N1CCN(C(=O)C2CC2)CC1 + CNC(C)C(=O)NC1CN(S(=O)(=O)c2cccc(S(=O)(=O)N3CCC4CCC(C(=O)NC(c5ccccc5)c5ccccc5)N4C(=O)C(NC(=O)C(C)NC)C3)c2)CCC2CCC(C(=O)NC(c3ccccc3)c3ccccc3)N2C1=O"
  target entity: "OVCAR-5 complex spheroid (HUVEC/MSC), viability % T/C"
  viability, T/C / %: 80.5
